Values compiled from patent US11304946B2.

Biological target: Human AhR (Homo sapiens, UniProt P35869)
Sequence (P35869 11-848): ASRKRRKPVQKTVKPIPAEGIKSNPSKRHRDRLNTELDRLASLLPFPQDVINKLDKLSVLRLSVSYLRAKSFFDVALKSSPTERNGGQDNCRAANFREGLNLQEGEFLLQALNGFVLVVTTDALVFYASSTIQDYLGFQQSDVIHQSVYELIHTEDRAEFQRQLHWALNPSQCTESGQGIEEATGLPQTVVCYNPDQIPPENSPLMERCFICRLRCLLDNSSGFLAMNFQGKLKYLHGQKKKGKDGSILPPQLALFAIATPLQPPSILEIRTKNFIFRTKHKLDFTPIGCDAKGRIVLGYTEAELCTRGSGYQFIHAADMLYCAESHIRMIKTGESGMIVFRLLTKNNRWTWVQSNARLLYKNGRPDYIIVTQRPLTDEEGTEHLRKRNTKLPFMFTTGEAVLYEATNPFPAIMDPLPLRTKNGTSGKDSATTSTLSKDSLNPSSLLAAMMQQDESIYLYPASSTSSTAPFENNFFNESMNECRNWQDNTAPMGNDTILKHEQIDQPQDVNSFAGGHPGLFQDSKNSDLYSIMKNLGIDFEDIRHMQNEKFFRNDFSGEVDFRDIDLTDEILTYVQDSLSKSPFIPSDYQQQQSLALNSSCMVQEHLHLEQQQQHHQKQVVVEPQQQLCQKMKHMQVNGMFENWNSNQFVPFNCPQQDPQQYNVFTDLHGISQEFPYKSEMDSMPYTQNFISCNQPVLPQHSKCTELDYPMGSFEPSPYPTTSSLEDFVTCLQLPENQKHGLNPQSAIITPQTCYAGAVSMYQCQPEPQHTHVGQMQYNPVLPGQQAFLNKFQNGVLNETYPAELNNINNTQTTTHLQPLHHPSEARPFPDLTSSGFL
Assay: Transactivation assay in human cell line (in vitro assay 1: antagonism)
Conditions: U87 glioblastoma cells, AHR inducible (DRE) firefly luciferase reporter, 150 μM kynurenic acid, 20 hours
pIC50: −log10 of the molar value.
Think of 7 as a floor: if pIC50 stands on it or above, it is YES; beneath it, NO.

Illustrative cases are given below, each with its answer.
smiles input	label
CC(C)(O)CNC(=O)c1cc(-c2ccc(Cl)cc2)nc(-c2ccc(C#N)nc2)n1	NO
C[C@@H](CO)NC(=O)c1cc(-c2ccc(Cl)cc2)nc(-c2cncnc2)n1	YES
Cn1cc(-c2nc(C(=O)N[C@H](CO)C(C)(C)C)cc(-c3ccc(OC(F)(F)F)cc3)n2)cn1	YES
CC(C)(O)CNC(=O)c1cc(-c2ccc(OC(F)(F)F)cc2)nc(-c2cnn(C3CC3)c2)n1	NO
CC(C)(O)CNC(=O)c1cc(-c2ccc(OC(F)(F)F)cc2)nc(-c2cnoc2)n1	NO
Cc1cn[nH]c1-c1nc(C(=O)N[C@@H](C)CO)cc(-c2ccc(OC(F)(F)F)cc2)n1	YES
CC(C)(O)CNC(=O)c1cc(-c2ccc(Cl)cc2)nc(-c2cnc(Cl)nc2)n1	NO
C[C@@H](CO)NC(=O)c1cc(-c2ccc(OC(F)(F)F)cc2)nc(-c2ccc(C#N)s2)n1	NO

Input line: Does pIC50 meet or surpass 7 for `C[C@@H](CO)NC(=O)c1cc(-c2ccc(OC(F)(F)F)cc2)nc(-c2ccnn2C)n1` ?
Output line: YES

Input line: Does pIC50 meet or surpass 7 for `Cn1cc(-c2nc(C(=O)NC(CO)(CO)C(F)(F)F)cc(-c3ccc(OC(F)(F)F)cc3)n2)cn1` ?
Output line: YES

Input line: Does pIC50 meet or surpass 7 for `CC(C)(O)CNC(=O)c1cc(-c2ccc(OC(F)(F)F)cc2)nc(-c2cn[nH]c2)n1` ?
Output line: NO

Input line: Does pIC50 meet or surpass 7 for `CC(C)(O)CNC(=O)c1cc(-c2ccc(OC(F)(F)F)cc2)nc(-c2cccnc2)n1` ?
Output line: YES
